# experiment-description: Cytotoxicity assay (PrestoBlue), “F2” HAE
# protocol-conditions: female, human, % cell viability, F2 HAE, 33.333 µM
endpoint: viability at 72 h, 33.333 µM (%)
Quick note: give the figure in %, leave out the unit.

Lookup: Dear colleague, I am looking for the recorded viability at 72 h, 33.333 µM of the following compound: CC(C)C(=O)OCC1OC(C#N)(c2ccc3c(N)ncnn23)C(OC(=O)C(C)C)C1OC(=O)C(C)C (stereo not shown) [GS-621763]
Found: 82

----------
# experiment-description: in vitro
# protocol-conditions: human
endpoint: CC50 at 48 h

Lookup: Dear colleague, I am looking for the recorded CC50 at 48 h of the following compound: `N#C[C@@]1(c2ccc3c(N)ncnn23)O[C@H](CO)[C@@H](O)[C@H]1O`
Found: > 50 µM

Lookup: Can you handle CC(C)C(=O)OCC1OC(C#N)(c2ccc3c(N)ncnn23)C(OC(=O)C(C)C)C1OC(=O)C(C)C (centres unmarked) next?
Found: > 47 µM

----------
# experiment-description: in vitro
# protocol-conditions: female, human, % cell viability, DF2 HAE, 33.333 µM, 72 h
endpoint: viability at 33.333 µM (%)
Quick note: give the figure in %, leave out the unit.

Lookup: Dear colleague, I am looking for the recorded viability at 33.333 µM of the following molecule: `CCC(CC)COC(=O)[C@H](C)N[P@](=O)(OC[C@H]1O[C@@](C#N)(c2ccc3c(N)ncnn23)[C@H](O)[C@@H]1O)Oc1ccccc1`
Found: 86

Lookup: Can you handle CC(C)C(=O)OCC1OC(C#N)(c2ccc3c(N)ncnn23)C(OC(=O)C(C)C)C1OC(=O)C(C)C (centres unmarked) next?
Found: 112

----------
# experiment-description: in vitro
# protocol-conditions: human, % cell viability, HEp-2, 33.333 µM, 72 h
endpoint: viability at 33.333 µM (%)
Quick note: give the figure in %, leave out the unit.

Lookup: Dear colleague, I am looking for the recorded viability at 33.333 µM of the following compound: `CCC(CC)COC(=O)[C@H](C)N[P@](=O)(OC[C@H]1O[C@@](C#N)(c2ccc3c(N)ncnn23)[C@H](O)[C@@H]1O)Oc1ccccc1`
Found: 64

----------
# experiment-description: in vitro
# protocol-conditions: female, human, % cell viability, F2 HAE, 0.046 µM, 72 h
endpoint: viability at 0.046 µM (%)
Quick note: give the figure in %, leave out the unit.

Lookup: Dear colleague, I am looking for the recorded viability at 0.046 µM of the following molecule: `CCC(CC)COC(=O)[C@H](C)N[P@](=O)(OC[C@H]1O[C@@](C#N)(c2ccc3c(N)ncnn23)[C@H](O)[C@@H]1O)Oc1ccccc1`
Found: 81

----------
# experiment-description: in vitro
# protocol-conditions: hamster, % cell viability, BHK-21, 33.333 µM, 72 h
endpoint: viability at 72 h, 33.333 µM (%)
Quick note: give the figure in %, leave out the unit.

Lookup: Dear colleague, I am looking for the recorded viability at 72 h, 33.333 µM of the following compound: CC(C)C(=O)OCC1OC(C#N)(c2ccc3c(N)ncnn23)C(OC(=O)C(C)C)C1OC(=O)C(C)C (stereo not shown)
Found: 103
